- Measured on: human TGR5 (Homo sapiens, UniProt Q8TDU6)
- Construct: expressed in transfected cells; host or cells: HEK293
- Sequence (Q8TDU6 whole entry): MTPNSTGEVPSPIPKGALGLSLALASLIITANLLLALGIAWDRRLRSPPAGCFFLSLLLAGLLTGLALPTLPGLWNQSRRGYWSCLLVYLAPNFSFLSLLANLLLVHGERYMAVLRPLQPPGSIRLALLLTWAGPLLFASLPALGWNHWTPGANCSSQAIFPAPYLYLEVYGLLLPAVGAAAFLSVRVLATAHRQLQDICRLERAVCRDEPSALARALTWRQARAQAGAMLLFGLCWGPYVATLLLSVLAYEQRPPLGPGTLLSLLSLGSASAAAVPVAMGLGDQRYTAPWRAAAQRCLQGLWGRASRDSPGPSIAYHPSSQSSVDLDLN
- Protocol details: Cell-based TGR5 assay (cAMP generation, HTRF)
- Condition: HEK293 cells stably transfected with human TGR5; cAMP by HTRF; 30 minutes at 37° C.; read-out: pEC50 Human TGR5 (converted)
Test readout: EC50

{"Molecule": "CN(C[C@H](O)[C@@H](O)[C@H](O)[C@H](O)CO)C(=O)CCCCc1cc(Cl)c(CNC2(c3cnccc3-c3ccccc3OC3CC3)CC2)cc1Cl [Compound I-137]", "Measured on": "human TGR5 (Homo sapiens, UniProt Q8TDU6)", "EC50": "< 100 nM"}
{"Molecule": "CN(CCCNC[C@H](O)[C@@H](O)[C@H](O)[C@H](O)C(=O)O)C(=O)CCCCc1cc(Cl)c(COC2(c3cnccc3-c3ccccc3OC3CC3)CC2)cc1Cl [Compound I-180]", "Measured on": "human TGR5 (Homo sapiens, UniProt Q8TDU6)", "EC50": "< 100 nM"}
{"Molecule": "CS(=O)(=O)CCN(CCCSc1ccc(Cl)c(CNC2(c3cnccc3-c3ccccc3OC3CC3)CC2)c1)C(=O)[C@@H](O)[C@@H](O)[C@H](O)[C@@H](O)CO [Compound I-583]", "Measured on": "human TGR5 (Homo sapiens, UniProt Q8TDU6)", "EC50": "126 to 1000 nM"}
{"Molecule": "O=C(NCCOCC[S+]([O-])c1ccc(Cl)c(COC2(c3cnccc3-c3ccccc3OC3CC3)CC2)c1)NC[C@H](O)[C@@H](O)[C@H](O)[C@H](O)CO (stereo partly drawn) [Compound I-491]", "Measured on": "human TGR5 (Homo sapiens, UniProt Q8TDU6)", "EC50": "126 to 1000 nM"}
{"Molecule": "Cc1ccccc1-c1ccncc1C1(OCc2cc(Cl)ccc2Cl)CC1 [Compound I-773]", "Measured on": "human TGR5 (Homo sapiens, UniProt Q8TDU6)", "EC50": "126 to 1000 nM"}

Now let's try a different one.
// EC50 lookup, molecule = O=C1CCCN1CCCN(CCCCSc1ccc(Cl)c(COC2(c3cnccc3-c3ccccc3OC3CC3)CC2)c1)C(=O)[C@@H](O)[C@@H](O)[C@H](O)[C@@H](O)CO [Compound I-515] , result: < 100 nM

Data origin: patent US12084472B2
